Target or system Cytochrome P450 3A4 (Homo sapiens, UniProt P08684); recorded quantity IC50.

{"columns": ["Structure String", "IC50"],
 "data": [
  ["Cc1cc(N2CC[C@H](N3CCC[C@H]3C)C2)ccc1NC(=O)c1cc(F)ccc1C", "> 30 µM"]
]}

Proceeding to the next compound to report its IC50.
Which IC50 value is on record for Cc1cc(N2CC[C@H](N3CCC[C@@H]3C)C2)ccc1NC(=O)c1cc(F)ccc1C ?
> 30 µM
